Target: T1, biotin-MYC3(5-242) (Arabidopsis, UniProt Q9FIP9 5-242, biotin (site not stated))
T1 sequence (looked up): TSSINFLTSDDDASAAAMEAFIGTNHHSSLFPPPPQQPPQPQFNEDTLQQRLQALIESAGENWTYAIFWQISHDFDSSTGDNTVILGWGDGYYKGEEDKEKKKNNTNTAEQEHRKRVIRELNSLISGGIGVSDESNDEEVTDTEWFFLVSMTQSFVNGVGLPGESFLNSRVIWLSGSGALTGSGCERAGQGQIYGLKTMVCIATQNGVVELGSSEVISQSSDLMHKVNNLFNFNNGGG
Assay: AlphaScreen or HTRF
pIC50: −log10 of the molar value.
attribute-measured: pIC50

Recorded pIC50 (binder SVPQARKASLARFLEKRKERLM (peptide, UniProt Q8W4J8 218-239, looked up) [Jas22^JAZ9 peptide] ): ~6.31
